System: ISC-enriched organoids
Assay: Secondary (validation) screen, 384-well 2.5-D, ENR+CD 6 days, n=8 wells, vs ENR+CD+DMSO control: carbachol-induced lysozyme secretion (LYZ.S)
Assay type: cell-based, murine
Details: Dose 0.04 uM
Procedure: Drugs were tested at a narrowed dose range around each treatment's identified optimal dose from the primary screen (4× below, 2× above and below). High-throughput screening. Secondary lysozyme secretion assay screen. […] ATP, non-stimulated lysozyme activity and CCh-stimulated lysozyme activity was again measured and the collected data was again processed in a custom R-script, per primary screen with slight modification. […]
measured.quantity: Z.LYZ.S
API doc: respond with a numeric literal and nothing else, no unit.

* NC1(Cc2ccc(Cl)cc2)CCN(c2ncnc3[nH]ccc23)CC1 [CCT128930, reference compound] | −0.108
* CCOc1ccc(Cc2cc([C@@H]3O[C@H](CO)[C@@H](O)[C@H](O)[C@H]3O)ccc2Cl)cc1 | 0.528
* CCc1c(C(=O)C(N)=O)c2c(OCC(=O)O)cccc2n1Cc1ccccc1 | −0.339

[Q] Give the measured Z.LYZ.S of CC(C)(C)NC(=O)[C@H]1CC[C@H]2[C@@H]3CC[C@H]4NC(=O)C=C[C@]4(C)[C@H]3CC[C@]12C [Finasteride] .
[A] −1.996

This collection of values is drawn from patent US20230398130A1.
